Origin of the recorded values: PubChem BioAssay AID1259370

target system: M-phase inducer phosphatase 2 (Homo sapiens) + Cyclin-dependent kinase 2 (Homo sapiens) + Cyclin-A2 (Homo sapiens) (UniProt P30305+P24941+P20248)
experiment summary: primary biochemical HTRF screen for inhibition of M-phase inducer phosphatase 2 binding to cyclin-dependent kinase 2/cyclin A (AID 1259370)
condition: HTRF CDC25B-CDK2/CyclinA binding, anti-His/anti-Flag; stronger effect = higher value
Screen size: about 94,000 compounds; about 680 (0.72%) were called active. The entries come from a sample that favours actives as a whole.
z-score values by entry

- molecule: "COCCOC(=O)C1=C(C)NC2=C(C(=O)C(C(=O)OC)C(C)C2)C1c1cccc(Br)c1 (stereo unspecified)"
  z-score: -0.35
- molecule: "O=C1CCCN1CCCn1c(=O)[nH]c2ccccc2c1=O"
  z-score: -0.94
- molecule: "Cc1nc(-n2cnc3ccccc32)c2c3c(sc2n1)CCC3"
  z-score: -2.24
- molecule: "CCSc1ncc(Cl)c(C(=O)Nc2nc(C)c(C(=O)OCC(C)C)s2)n1"
  z-score: -1.22
- molecule: "C=CCN(Cc1nc(-c2ccc(C)cc2)no1)S(=O)(=O)c1ccc(Br)cc1"
  z-score: -1.17
- molecule: "Cc1ccc(S(=O)(=O)c2nc(S(C)(=O)=O)sc2N2CCN(CCO)CC2)cc1"
  z-score: -2

----------
target system: M-phase inducer phosphatase 2 (Homo sapiens) + Cyclin-dependent kinase 2 (Homo sapiens) + Cyclin-A2 (Homo sapiens) (UniProt P30305+P24941+P20248)
experiment summary: primary biochemical HTRF screen for inhibition of M-phase inducer phosphatase 2 binding to cyclin-dependent kinase 2/cyclin A (AID 1259370)
condition: HTRF CDC25B-CDK2/CyclinA binding, anti-His/anti-Flag
The campaign covered roughly 94,000 compounds. About 680 (0.72%) were called active. No stated cut-off is given here; in the data, active means z-score above about 3.2; inactive means the rest. The full list was thinned out, with actives kept by preference.
Outcome codes: active, inactive

- compound: "CCN1CCCC1CNC(=O)c1sc2nc(C)cc(C)c2c1-n1cccc1 (stereo not given)"
  group: "inactive"
- compound: "CCOC(=O)c1sc2nc3c(c(-c4ccco4)c2c1N)CCC3"
  group: "inactive"
- compound: "N#CC1=C(N)OC2=C(C(=O)CCC2)C1c1cccc(O)c1 (stereo not given)"
  group: "inactive"
- compound: "O=C(CSCc1cnn(-c2ccccc2)c1-n1cccc1)Nc1ccc2c(c1)OCCO2"
  group: "inactive"
- compound: "COC(=O)C1=C(OC(=O)COc2ccccc2)c2ccccc2S(=O)(=O)N1C"
  group: "inactive"
- compound: "CCOCCOC(=O)C1=C(C)NC2=C(C(=O)CCC2)C1c1ccc(OC(C)=O)cc1 (stereo not given)"
  group: "inactive"
- compound: "CC(C)C(=O)Nc1sc2c(c1C(=O)O)CCCC2"
  group: "inactive"
- compound: "COc1ccc2cc3c(N)nn(C(=O)Cn4c(=O)oc5ccccc54)c3nc2c1"
  group: "inactive"
- compound: "O=C(Nc1ccc(F)cc1)N1CCC(n2c(=O)[nH]c3ccccc32)CC1"
  group: "inactive"
- compound: "CCCCn1c(CCNC(=O)C(C)(C)C)nc2ccccc21"
  group: "inactive"
- compound: "COc1ccc(COC(=O)C2=C(C)NC3=C(C(=O)CCC3)C2c2ccc(Br)cc2)cc1 (stereo not given)"
  group: "inactive"
- compound: "N#Cc1c(N)nc2c(c1-c1ccco1)CCCC2"
  group: "active"
- compound: "Cc1cc(C(=O)O)c2cc(Br)ccc2n1"
  group: "inactive"
- compound: "CCC12CN3CC(CC)(CN(C1)C3c1cccc(N)c1)C2=O (stereo not given)"
  group: "inactive"
- compound: "Cc1ccc(Cn2c(=O)c(C#N)cc3c(=O)n4ccccc4nc32)cc1"
  group: "inactive"
- compound: "O=C(/C=C/c1ccc(-c2ccccc2[N+](=O)[O-])o1)Nc1cc(Cl)c(Cl)cc1Cl"
  group: "active"
- compound: "CC(C)S(=O)(=O)c1cscc1N/C=C(/C#N)C(=O)C1CC1"
  group: "inactive"
- compound: "N#Cc1c(-c2ccco2)cc(-c2ccc(Br)cc2)nc1N"
  group: "inactive"
- compound: "Cc1ccc(NC(=O)CSc2nc(N)c3c4c(sc3n2)COC(C(C)C)C4)cc1 (stereo not given)"
  group: "inactive"
- compound: "CCCCCCn1c(C2CCCO2)nc2ccccc21 (stereo not given)"
  group: "inactive"
- compound: "CCOc1cc(-n2cnnn2)c(OCC)cc1N"
  group: "active"
- compound: "O=C(O)C1CCCN(c2cnccn2)C1 (stereo not given)"
  group: "inactive"
- compound: "O=C1c2ccc3c4c(ccc(c24)C(=O)N1c1ccccc1)C(=O)N(c1ccccc1)C3=O"
  group: "inactive"
- compound: "Cc1cc(C)c2c(n1)nn1c(C)c(CCC(=O)NCCCN3CCCC3=O)c(C)nc21"
  group: "inactive"
- compound: "CCOC(=O)c1sc(NC(=O)c2cc3ccccc3o2)c(C(=O)OCC)c1C"
  group: "inactive"
- compound: "O=C1c2cccc3cccc(c23)C(=O)N1c1cccc(O)c1"
  group: "inactive"
- compound: "COc1cccc(C2CC(=O)N3CN(c4ccc(Br)cc4)CSC3=C2C#N)c1 (stereo not given)"
  group: "active"
- compound: "CCN(CC)c1nc2c(s1)C(=O)NCC(C)(C)C2"
  group: "inactive"
- compound: "O=c1c(S(=O)(=O)c2ccc(Cl)cc2)c[nH]c2ccc(F)cc12"
  group: "inactive"
- compound: "CCCc1c(C)nc2ncnn2c1Nc1ccc(CC)cc1"
  group: "inactive"

----------
target system: M-phase inducer phosphatase 2 (Homo sapiens) + Cyclin-dependent kinase 2 (Homo sapiens) + Cyclin-A2 (Homo sapiens) (UniProt P30305+P24941+P20248)
experiment summary: primary biochemical HTRF screen for inhibition of M-phase inducer phosphatase 2 binding to cyclin-dependent kinase 2/cyclin A (AID 1259370)
condition: HTRF CDC25B-CDK2/CyclinA binding, anti-His/anti-Flag; stronger effect = higher value
Among all 94,000 compounds or so, about 680 (0.72%) were called active. Many of the other results were omitted from the sample, so actives are more common in it than they were.
Returns Condition met if the recorded z-score is greater than or equal to -0.7, and Condition not met otherwise.

- compound: "CC(=O)Oc1cc2c(C(=O)N3CCN(c4ccccc4)CC3)c(C)oc2c2ccccc12"
  group: "Condition met"
- compound: "Cc1nn(C(C)C(=O)NCc2ccco2)c(=O)c2cc3occc3n12 (centres undefined)"
  group: "Condition met"
- compound: "CCC(C)N(CCNC(=O)Nc1cn(C)c(=O)c2ccccc12)Cc1ccco1 (centres undefined)"
  group: "Condition met"
- compound: "O=C(CC1Oc2ccccc2NC1=O)NCc1ccco1 (centres undefined)"
  group: "Condition not met"
- compound: "Cc1ccccc1-c1noc(-c2ccc(F)cc2)n1"
  group: "Condition met"
- compound: "COc1ccc(C(=O)Oc2ccc3c(C)cc(=O)oc3c2C(C)=O)cc1OC"
  group: "Condition met"
- compound: "COc1ccc(-c2csc(-c3cc4c([nH]c3=O)CC(c3ccc(OC)c(OC)c3)CC4=O)n2)cc1 (centres undefined)"
  group: "Condition not met"
- compound: "CCOC(=O)C1=C(C)NC2=C(C(=O)CC(c3cccs3)C2)C1c1cc(Br)ccc1F (centres undefined)"
  group: "Condition met"
- compound: "CNC(=O)c1c(NC(=O)c2cc(=O)c3ccccc3o2)sc2c1CCCC2"
  group: "Condition met"
- compound: "COc1ccc(-c2csc(-c3cc4c([nH]c3=O)CC(c3ccco3)CC4=O)n2)cc1F (centres undefined)"
  group: "Condition met"
- compound: "S=C(Nc1cccnc1)N1CCCN(Cc2ccc(Cl)cc2Cl)CC1"
  group: "Condition met"
- compound: "NC(=O)C1CCN(C(=O)C(=O)c2c[nH]c3ccccc23)CC1"
  group: "Condition not met"
- compound: "CCOC(=O)C(Sc1nc(N2CCOCC2)c2c(c1C#N)CC(C)(C)OC2)c1ccccc1 (centres undefined)"
  group: "Condition not met"
- compound: "Cn1c(=O)c2c(ncn2CC(=O)NCC2CCCO2)n(C)c1=O (centres undefined)"
  group: "Condition not met"
- compound: "O=C(Nc1ccccc1)N1CCN(Cc2ccccc2)CC1"
  group: "Condition met"
- compound: "COc1ccc(C2CC(=O)c3cc(-c4nc(-c5ccc(F)cc5)cs4)c(=O)[nH]c3C2)cc1 (centres undefined)"
  group: "Condition not met"
- compound: "COC(=O)c1ccc(N2CSC3=C(C#N)C(c4ccc(Cl)cc4)CC(=O)N3C2)cc1 (centres undefined)"
  group: "Condition met"
- compound: "COc1cc(C2CC(=O)N3CN(c4ccccc4)CSC3=C2C#N)ccc1O (centres undefined)"
  group: "Condition met"

----------
target system: M-phase inducer phosphatase 2 (Homo sapiens) + Cyclin-dependent kinase 2 (Homo sapiens) + Cyclin-A2 (Homo sapiens) (UniProt P30305+P24941+P20248)
experiment summary: primary biochemical HTRF screen for inhibition of M-phase inducer phosphatase 2 binding to cyclin-dependent kinase 2/cyclin A (AID 1259370)
condition: HTRF CDC25B-CDK2/CyclinA binding, anti-His/anti-Flag; stronger effect = higher value
In all, about 94,000 compounds went through this assay and about 680 (0.72%) were called active. This excerpt belongs to a sample that is enriched for actives.
readout label: z-score

- structure: "CCCc1nc2sc3c(OCC)ncnc3c2c2c1COC(C)(C)C2"
  readout label: "z-score"
  recorded value: 0.03
- structure: "CC(C)CNc1cc(N2CCN(C)CC2)c2noc3c2c1C(=O)c1ccccc1-3"
  readout label: "z-score"
  recorded value: -2.89
- structure: "CN1CCN(c2cc(NCCCC(=O)O)c3c4c(onc24)-c2ccccc2C3=O)CC1"
  readout label: "z-score"
  recorded value: 0.14
- structure: "O=C(CN1CCN(c2ccccn2)CC1)c1ccc2c(c1)CCN2"
  readout label: "z-score"
  recorded value: -2.4
- structure: "CC(C)NC(=O)Nc1ccc2snnc2c1"
  readout label: "z-score"
  recorded value: 5.16
